- METHOD_SUMMARY: Volume of distribution at steady state in Lewis rat at 1 mg/kg, iv measured up to 24 hrs by LC-MS/MS method
- Assay type: ADME, organism-based
- EXPERIMENTAL_CONTEXT: in vivo, read-out: Vdss
OUTCOME_MEASURE: Vd

input: Reported Vd for CCS(=O)(=O)N1CC(CC#N)(n2cc(-c3ncnc4[nH]ccc34)cn2)C1 : what is it?
output: 1.8 L/kg

###

- METHOD_SUMMARY: Metabolic stability in rat liver microsomes assessed as compound remaining at 1 uM measured up to 120 mins in presence of NADPH by HPLC-MS/MS analysis
- Type: ADME, Microsome
- EXPERIMENTAL_CONTEXT: read-out: Stabilty
OUTCOME_MEASURE: remaining at 2 h, 1 µM

input: Reported remaining at 2 h, 1 µM for CCS(=O)(=O)N1CC(CC#N)(n2cc(-c3ncnc4[nH]ccc34)cn2)C1 : what is it?
output: 96.1%
